Assign Ki to each entry below.

Report Ki from Cannabinoid receptor 2 (Homo sapiens, UniProt P34972) testing of CCCCCn1cc2c(=O)n(-c3ccc(OC)cc3)nc-2c2ccccc21
> 3 µM

Report Ki from Cannabinoid receptor 2 (Homo sapiens, UniProt P34972) testing of CCCCCn1cc2c(=O)n(-c3cccc(C(F)(F)F)c3)nc-2c2ccccc21
0.0292 µM

Report Ki from Cannabinoid receptor 2 (Homo sapiens, UniProt P34972) testing of CCCCCn1c(-c2ccccc2)c2c(=O)n(-c3cccc(C(F)(F)F)c3)nc-2c2ccccc21
> 3 µM

Report Ki from Cannabinoid receptor 2 (Homo sapiens, UniProt P34972) testing of CCCCCn1c(-c2ccccc2)c2c(=O)n(Cc3ccccc3)nc-2c2ccccc21
> 3 µM

Report Ki from Cannabinoid receptor 2 (Homo sapiens, UniProt P34972) testing of CCCCCn1c(-c2ccccc2)c2c(=O)[nH]nc-2c2ccccc21
> 3 µM

Report Ki from Cannabinoid receptor 2 (Homo sapiens, UniProt P34972) testing of CCCCCn1cc(C(=O)NCC23CC4CC(CC(C4)C2)C3)c(=O)c2ccccc21
0.0216 µM

Report Ki from Cannabinoid receptor 2 (Homo sapiens, UniProt P34972) testing of CCCCCn1c(-c2ccccc2)c2c(=O)n(-c3ccc(OC)cc3)nc-2c2ccccc21
> 3 µM

Report Ki from Cannabinoid receptor 2 (Homo sapiens, UniProt P34972) testing of CCCCCn1c(-c2ccccc2)c2c(=O)n(-c3ccccc3)nc-2c2ccccc21
> 3 µM

Report Ki from Cannabinoid receptor 2 (Homo sapiens, UniProt P34972) testing of CCCCCn1cc2c(=O)n(CCCc3ccccc3)nc-2c2ccccc21
> 3 µM

Report Ki from Cannabinoid receptor 2 (Homo sapiens, UniProt P34972) testing of CCCCCn1cc2c(=O)n(-c3ccccc3)nc-2c2ccccc21
1.36 µM

Report Ki from Cannabinoid receptor 2 (Homo sapiens, UniProt P34972) testing of CCCCCn1c(-c2ccccc2)c2c(=O)n(CCCc3ccccc3)nc-2c2ccccc21
> 3 µM

###

Target: hERG (KCNH2) (Homo sapiens)
Sequence (Q12809 whole entry): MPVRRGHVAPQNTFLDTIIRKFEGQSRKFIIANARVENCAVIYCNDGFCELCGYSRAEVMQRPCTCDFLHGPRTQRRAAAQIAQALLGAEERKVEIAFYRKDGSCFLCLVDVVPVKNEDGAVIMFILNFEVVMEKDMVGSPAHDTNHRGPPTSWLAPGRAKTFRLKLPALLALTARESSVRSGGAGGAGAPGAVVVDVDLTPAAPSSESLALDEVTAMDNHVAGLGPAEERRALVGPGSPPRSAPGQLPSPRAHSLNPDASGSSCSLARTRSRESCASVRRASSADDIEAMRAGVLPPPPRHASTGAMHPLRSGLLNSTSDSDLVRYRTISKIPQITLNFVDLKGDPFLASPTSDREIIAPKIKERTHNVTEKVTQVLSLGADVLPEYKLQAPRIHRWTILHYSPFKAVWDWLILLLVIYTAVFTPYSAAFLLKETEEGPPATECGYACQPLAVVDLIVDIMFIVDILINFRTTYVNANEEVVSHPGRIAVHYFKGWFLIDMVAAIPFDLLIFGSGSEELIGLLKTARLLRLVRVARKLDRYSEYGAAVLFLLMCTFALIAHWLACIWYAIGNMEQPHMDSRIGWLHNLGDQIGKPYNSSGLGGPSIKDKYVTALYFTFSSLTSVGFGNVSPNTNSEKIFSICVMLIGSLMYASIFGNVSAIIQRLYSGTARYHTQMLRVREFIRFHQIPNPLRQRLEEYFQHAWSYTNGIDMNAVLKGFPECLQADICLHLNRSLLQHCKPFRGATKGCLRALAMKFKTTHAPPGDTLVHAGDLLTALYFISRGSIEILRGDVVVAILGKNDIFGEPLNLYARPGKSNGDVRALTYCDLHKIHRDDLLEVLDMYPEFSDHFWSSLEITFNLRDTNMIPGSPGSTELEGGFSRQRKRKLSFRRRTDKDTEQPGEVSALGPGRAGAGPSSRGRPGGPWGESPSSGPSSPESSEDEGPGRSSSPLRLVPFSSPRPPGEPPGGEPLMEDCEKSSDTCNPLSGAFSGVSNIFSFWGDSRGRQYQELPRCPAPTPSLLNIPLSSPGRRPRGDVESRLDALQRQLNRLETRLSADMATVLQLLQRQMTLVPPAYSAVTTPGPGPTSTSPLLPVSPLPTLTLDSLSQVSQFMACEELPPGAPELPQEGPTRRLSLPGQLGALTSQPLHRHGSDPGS
Assay: Binding affinity to human ERG expressed in HEK293 cells assessed as inhibition of tail current at 1 uM after 5 to 10 mins by patch-clamp assay relative to control
Type: cell-based
Conditions: HEK293 cells expressing human ERG
Experimental endpoint: inhibition at 1 µM (%)
Field format: number, assumed %, no unit text.

Report measured inhibition at 1 µM; entry is CCCCCn1cc2c(=O)n(CC34CC5CC(CC(C5)C3)C4)nc-2c2ccccc21
35.5

###

Assay: Fraction unbound in human plasma after 18 hrs by equilibrium dialysis method
Assay type: ADME, cell-free
Experimental endpoint: fraction unbound at 18 h

Report measured fraction unbound at 18 h; entry is CCCCCn1cc2c(=O)n(CC34CC5CC(CC(C5)C3)C4)nc-2c2ccccc21
< 1

###

Target: UniProt P34972
Experiment: Agonist activity at human CB2 receptor after 1 hr by [35S]-GTPgammaS binding assay
Format: functional
Assign Emax to each entry below.
Field format: number, assumed %, no unit text.

Report measured Emax; entry is CCCCCn1cc2c(=O)n(CC34CC5CC(CC(C5)C3)C4)nc-2c2ccccc21
163

Report measured Emax; entry is CCCCCn1cc2c(=O)n(C3CCCCC3)nc-2c2ccccc21
160

Report measured Emax; entry is CCCCCn1cc2c(=O)n(CCC3CCCCC3)nc-2c2ccccc21
141

Report measured Emax; entry is CCCCCn1cc2c(=O)n(CC3CCCCC3)nc-2c2ccccc21
149

###

Experiment: Permeability across apical to basolateral side in human Caco2 cells at 10 uM after 60 mins
Type: ADME, cell-based
Conditions: Caco-2, read-out: permeability
Experimental endpoint: Papp A→B at 1 h, 10 µM (×10⁻⁶ cm/s)
Field format: number, assumed ×10⁻⁶ cm/s, no unit text.

Report measured Papp A→B at 1 h, 10 µM; entry is CCCCCn1cc2c(=O)n(CC34CC5CC(CC(C5)C3)C4)nc-2c2ccccc21
0.8

###

Test: Metabolic stability in human liver microsomes assessed as compound remaining at 1 uM after 60 mins
Format: ADME
Details: read-out: Stability
Experimental endpoint: remaining at 1 h, 1 µM (%)
Field format: number, assumed %, no unit text.

Report measured remaining at 1 h, 1 µM; entry is CCCCCn1cc2c(=O)n(CC34CC5CC(CC(C5)C3)C4)nc-2c2ccccc21
64
